Reference source for all entries: patent US9750724B2

# Assay Remarks: Single ascending dose study in pre- and post-menopausal women, pharmacokinetics
# Type: in vivo, human
# Measurement Conditions: female, human, in vivo, 0.03 mg, Cmax Mean
Metric Name: Cmax
Number plus unit, in that order.

Which measured Cmax value corresponds to N#Cc1ccc(C(F)(c2ccc(C#N)cc2)n2cncn2)cc1 ?
0.4 ng/mL

====

# Assay Remarks: Single ascending dose study in pre- and post-menopausal women, pharmacokinetics
# Assay type: in vivo, human
# Measurement Conditions: female, human, in vivo, 0.1 mg, AUC (0-tlast) Mean
# Excerpt: The drug concentration in plasma and/or serum samples can be determined by a number of different ways, e.g. HPLC or LC-MS/MS analyses. […] A minimal toxic dose (MTD) was not reached. […] Table 3 presents the PK parameters based on preliminary analysis of the concentration-time profile obtained from this study.
Metric Name: AUC(0-t) (ng·h/mL)
Respond numerically; units are ng·h/mL and should not be typed.

Request the reported AUC(0-t) associated with N#Cc1ccc(C(F)(c2ccc(C#N)cc2)n2cncn2)cc1 [CGP47645]
123

====

# Assay Remarks: Single ascending dose study in pre- and post-menopausal women, pharmacokinetics
# Assay type: in vivo, human
# Measurement Conditions: female, human, in vivo, 3 mg, T1/2 Mean
Metric Name: half-life (days)
Numbers only here, please. The scale is days.

For the compound N#Cc1ccc(C(F)(c2ccc(C#N)cc2)n2cncn2)cc1 , what half-life is on record?
25

====

# Assay Remarks: Single ascending dose study in pre- and post-menopausal women, pharmacokinetics
# Assay type: in vivo, human
# Measurement Conditions: female, human, in vivo, 3 mg, Cmax Mean
Metric Name: Cmax (ng/mL)
Expressed in ng/mL, but write only the number.

Which Cmax value belongs to N#Cc1ccc(C(F)(c2ccc(C#N)cc2)n2cncn2)cc1 [CGP47645] ?
38.4

====

# Assay Remarks: Single ascending dose study in pre- and post-menopausal women, pharmacokinetics
# Assay type: in vivo, human
# Measurement Conditions: female, human, in vivo, 2.5 mg, T1/2 Mean
Metric Name: half-life (h)
Unit h implied. Number only.

Can you look up the measured half-life of N#Cc1ccc(C(c2ccc(C#N)cc2)n2cncn2)cc1 [Letrozole, letrozole] for me?
69.6

====

# Assay Remarks: Single ascending dose study in pre- and post-menopausal women, pharmacokinetics
# Format: in vivo, human
# Measurement Conditions: female, human, in vivo, 3 mg, AUC (0-tlast) Mean
Metric Name: AUC(0-t) (ng·h/mL)
Record the value in ng·h/mL, omitting the unit from your answer.

Recorded AUC(0-t) for N#Cc1ccc(C(F)(c2ccc(C#N)cc2)n2cncn2)cc1 , please?
10100

====

# Assay Remarks: Toxicologic studies in female and male dogs, weekly oral dosing
# Format: in vivo, dog
# Measurement Conditions: both sexes, dog, plasma, oral; dogs, post dose
Metric Name: Tmax

Which Tmax is reported for this compound? N#Cc1ccc(C(F)(c2ccc(C#N)cc2)n2cncn2)cc1 [CGP47645]
1 to 24 h

====

# Assay Remarks: Single ascending dose study in pre- and post-menopausal women, pharmacokinetics
# Format: in vivo, human
# Measurement Conditions: female, human, in vivo, 0.01 mg, AUC (0-tlast) Mean
Metric Name: AUC(0-t) (ng·h/mL)
API: value field is a number in ng·h/mL; no unit string.

Recorded AUC(0-t) of N#Cc1ccc(C(F)(c2ccc(C#N)cc2)n2cncn2)cc1 , please.
1.4

====

# Assay Remarks: Single ascending dose study in pre- and post-menopausal women, pharmacokinetics
# Type: in vivo, human
# Measurement Conditions: female, human, in vivo, 20 mg
Metric Name: Tmax
Returns: string containing the numeric result and its unit.

# lookup: Tmax of N#Cc1ccc(C(F)(c2ccc(C#N)cc2)n2cncn2)cc1 [CGP47645]
2 h

====

# Assay Remarks: Single ascending dose study in pre- and post-menopausal women, pharmacokinetics
# Type: in vivo, human
# Measurement Conditions: female, human, in vivo, 0.1 mg
Metric Name: Tmax (h)
The figure you give is taken to be in h; do not add the unit.

Quick one: Tmax of N#Cc1ccc(C(F)(c2ccc(C#N)cc2)n2cncn2)cc1 ?
1

====

# Assay Remarks: Single ascending dose study in pre- and post-menopausal women, pharmacokinetics
# Assay type: in vivo, human
# Measurement Conditions: female, human, in vivo, 3 mg
Metric Name: Tmax (h)
All answers are understood in h, so give the number only.

What value of Tmax has been recorded for this entry: N#Cc1ccc(C(F)(c2ccc(C#N)cc2)n2cncn2)cc1
1

====

# Assay Remarks: Single ascending dose study in pre- and post-menopausal women, pharmacokinetics
# Assay type: in vivo, human
# Measurement Conditions: female, human, in vivo, 1 mg
Metric Name: Tmax (h)
Report the figure in h without appending any unit label.

For the compound shown here, N#Cc1ccc(C(F)(c2ccc(C#N)cc2)n2cncn2)cc1 [CGP47645] , give the reported Tmax.
1

====

# Assay Remarks: Single ascending dose study in pre- and post-menopausal women, pharmacokinetics
# Assay type: in vivo, human
# Measurement Conditions: female, human, in vivo, 10 mg, AUC (0-tlast) Mean
Metric Name: AUC(0-t) (ng·h/mL)
// note: answer is a bare numeric in ng·h/mL

Consider the compound N#Cc1ccc(C(F)(c2ccc(C#N)cc2)n2cncn2)cc1 and give its measured AUC(0-t).
41700

====

# Assay Remarks: Single ascending dose study in pre- and post-menopausal women, pharmacokinetics
# Format: in vivo, human
# Measurement Conditions: female, human, in vivo, 0.3 mg, Cmax Mean
Metric Name: Cmax

May I ask what Cmax has been recorded for N#Cc1ccc(C(F)(c2ccc(C#N)cc2)n2cncn2)cc1 ?
5.1 ng/mL

====

# Assay Remarks: Single ascending dose study in pre- and post-menopausal women, pharmacokinetics
# Format: in vivo, human
# Measurement Conditions: female, human, in vivo, 0.1 mg, T1/2 Mean
Metric Name: half-life (days)
Supply the numeric figure in days, leaving out any unit text.

Any idea what its half-life is? The compound is N#Cc1ccc(C(F)(c2ccc(C#N)cc2)n2cncn2)cc1 [CGP47645]
18.2

====

# Assay Remarks: Single ascending dose study in pre- and post-menopausal women, pharmacokinetics
# Type: in vivo, human
# Measurement Conditions: female, human, in vivo, 20 mg, Cmax Mean
Metric Name: Cmax (ng/mL)
Reply numerically in ng/mL, unit not repeated.

Consider the compound shown here: N#Cc1ccc(C(F)(c2ccc(C#N)cc2)n2cncn2)cc1 [CGP47645] What is its recorded Cmax?
270

====

# Assay Remarks: Single ascending dose study in pre- and post-menopausal women, pharmacokinetics
# Assay type: in vivo, human
# Measurement Conditions: female, human, in vivo, 20 mg, T1/2 Mean
Metric Name: half-life (days)
Give your result in days as a bare value.

I'd like to know its half-life. The compound in question is N#Cc1ccc(C(F)(c2ccc(C#N)cc2)n2cncn2)cc1
26.9

====

# Assay Remarks: Single ascending dose study in pre- and post-menopausal women, pharmacokinetics
# Assay type: in vivo, human
# Measurement Conditions: female, human, in vivo, 10 mg
# Excerpt: The drug concentration in plasma and/or serum samples can be determined by a number of different ways, e.g. HPLC or LC-MS/MS analyses. […] A minimal toxic dose (MTD) was not reached. […] Table 3 presents the PK parameters based on preliminary analysis of the concentration-time profile obtained from this study.
Metric Name: Tmax (h)
Kindly answer with a numeric value in h, unit omitted.

What value of Tmax has been recorded for this entry: N#Cc1ccc(C(F)(c2ccc(C#N)cc2)n2cncn2)cc1 [CGP47645]
2

====

# Assay Remarks: Single ascending dose study in pre- and post-menopausal women, pharmacokinetics
# Format: in vivo, human
# Measurement Conditions: female, human, in vivo, 0.3 mg, T1/2 Mean
# Excerpt: The drug concentration in plasma and/or serum samples can be determined by a number of different ways, e.g. HPLC or LC-MS/MS analyses. […] A minimal toxic dose (MTD) was not reached. […] Table 3 presents the PK parameters based on preliminary analysis of the concentration-time profile obtained from this study.
Metric Name: half-life (days)
Report the figure in days without appending any unit label.

Which half-life value belongs to N#Cc1ccc(C(F)(c2ccc(C#N)cc2)n2cncn2)cc1 ?
23.5

====

# Assay Remarks: Single ascending dose study in pre- and post-menopausal women, pharmacokinetics
# Assay type: in vivo, human
# Measurement Conditions: female, human, in vivo, 10 mg, T1/2 Mean
Metric Name: half-life

Suppose we examine the compound N#Cc1ccc(C(F)(c2ccc(C#N)cc2)n2cncn2)cc1 [CGP47645] ; what half-life value has been reported?
27.3 days

====

# Assay Remarks: Single ascending dose study in pre- and post-menopausal women, pharmacokinetics
# Assay type: in vivo, human
# Measurement Conditions: female, human, in vivo, 0.01 mg, T1/2 Mean
# From the text: The drug concentration in plasma and/or serum samples can be determined by a number of different ways, e.g. HPLC or LC-MS/MS analyses. […] A minimal toxic dose (MTD) was not reached. […] Table 3 presents the PK parameters based on preliminary analysis of the concentration-time profile obtained from this study.
Metric Name: half-life (h)
Write the number in h without appending the unit.

// half-life lookup, key: N#Cc1ccc(C(F)(c2ccc(C#N)cc2)n2cncn2)cc1
55.2
